# assay info: NCI Yeast Anticancer Drug Screen. Data for the rad50 strain (AID 155);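 note: 0% = growth of vehicle-only cultures of the same strain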
# experimental parameters: S. cerevisiae rad50 strain growth inhibition; at 50.0 µM
Compounds without any hit were thinned out: in the full panel of roughly 79,000, 15% have a hit. The source made the active and inactive calls. Cut-off read from the data, not from the text of the source: active = growth inhibition above about 70%; inactive = the rest.
Outcome codes: active, inactive

# compound, class name
measured = [
    ("Cc1c(Cl)c(C)c(Cl)c(O)c1Cl", "active"),
    ("O=[N+]([O-])c1cc[n+]([O-])c(Cl)c1", "active"),
    ("COc1ccc2cc(C(C)C(=O)N3CCOC3=O)ccc2c1 (stereo not drawn)", "inactive"),
    ("O=C(NNc1ccccc1)C(CCCCNS(=O)(=O)Cc1ccccc1)NS(=O)(=O)Cc1ccccc1 (stereo not drawn)", "inactive"),
    ("CC1=CN2C(c3ccccc3)=NON(c3ccc(C)cn3)C2C=C1 (stereo not drawn)", "inactive"),
    ("NC(N)=NS(=O)(=O)c1ccc(Nc2c3ccccc3nc3c(C(=O)NC(CO)(CO)CO)cccc23)cc1", "active"),
    ("Cc1cc(C)c2[s+]snc2c1", "inactive"),
    ("O=[N+]([O-])c1cc(Cl)ccc1S(=O)(=O)c1ccc(Cl)cc1[N+](=O)[O-]", "active"),
    ("CCCCCCCCCCCCOCCOCCOCC(N)=O", "active"),
    ("O=S1(=O)CCC2=CC(C(F)(F)F)=CC(C(F)(F)F)=CN21", "active"),
    ("c1ccc2c(c1)ccn2CCc1c[nH]c2ccccc12", "active"),
    ("O=[N+]([O-])c1ccc(/C=C\\c2ccc3c(c2)OCO3)c([N+](=O)[O-])c1", "active"),
    ("CN(C)CCNc1ccc2ncn3c4ccc(O)cc4c(=O)c1c23", "inactive"),
    ("O=C1Oc2ccccc2C(=O)/C1=C/N1C(=O)N/C(=C\\c2ccccc2Br)C1=O", "active"),
    ("O=S(=O)(NNc1ccccc1)c1ccccc1", "active"),
    ("Cc1ccc(S(=O)(=O)Nc2cccc3cccnc23)cc1", "inactive"),
    ("CC(C)CCC[C@@H](C)[C@H]1CC[C@H]2[C@@H]3CC[C@H]4C[C@H](N)CC[C@]4(C)[C@H]3CC[C@]12C", "inactive"),
    ("Cc1ccc(C)c(C(=N)c2ccccc2Cc2ccccc2)c1", "active"),
    ("CN(N=O)C(=O)Nc1ccc(C(=O)O)cc1", "inactive"),
    ("C=CC(C)(C)N1C(=O)C(C(C)=O)=C(O)C1Cc1c[nH]c2ccccc12 (stereo not drawn)", "inactive"),
    ("CC1(c2ccccc2)O[C@@H]2C[C@H]3[C@@H]4CCC5=CC(=O)C=C[C@]5(C)[C@@]4(F)[C@@H](O)C[C@]3(C)[C@]2(C(=O)CO)O1 (stereo partly drawn)", "active"),
    ("CC1=COC2=C(C)C(=O)C(=O)c3c(C)ccc1c32", "active"),
    ("CSc1nc(-c2ccccc2)nc(=[N+]2CCOCC2)s1", "active"),
    ("Brc1ccc(B2Nc3ccccc3N2)cc1", "active"),
    ("COC(=O)c1cnc(Cl)c([N+](=O)[O-])c1", "active"),
    ("Cc1ccc(S(=O)(=O)NC(=O)C2C(=O)CC3(CCCCC3)CC2=O)cc1", "inactive"),
    ("OC1(C#CI)CCCCC1", "active"),
    ("CC/C(=C(\\c1ccccc1)c1ccc(OCC[N+](C)(C)C)cc1)c1ccccc1", "active"),
    ("COC(=O)C1=C(C(=O)OC)CC(n2nnc(C(=O)OC)c2C(=O)OC)=CC1", "inactive"),
    ("CC1CN(/N=C\\c2ccc([N+](=O)[O-])o2)C(=O)O1 (stereo not drawn)", "active"),
    ("Cc1oc2ccccc2c(=O)c1Cn1nnc2ccccc21", "inactive"),
    ("O=C(O)C1CCCCC1c1c2ccc(=O)cc-2oc2cc(O)ccc12 (stereo not drawn)", "active"),
    ("S=C1N(c2ccc(Cl)cc2)C2=C(N=Nc3ccccc3)C(=Nc3ccccc3S2)N1c1ccccn1", "active"),
    ("[N-]=[N+]=NC1(c2ccccc2)C(=O)Nc2ccccc2C1=O (stereo not drawn)", "inactive"),
    ("CCCCCCCN1C(=O)c2ccccc2C1=O", "active"),
    ("O=C(Oc1ccc([N+](=O)[O-])cc1)c1ccc([N+](=O)[O-])cc1", "inactive"),
    ("CN(CCOc1ccc(Cl)cc1)CCOc1ccc(Cl)cc1", "active"),
    ("CCc1c(Cl)c(C)c(Cl)c(O)c1Cl", "active"),
]

###

# assay info: NCI Yeast Anticancer Drug Screen. Data for the rad18 strain (AID 177)
# experimental parameters: S. cerevisiae rad18 mutant growth inhibition; at 11.0 µM; stronger effect = higher value
Compounds without any hit were thinned out: in the full panel of roughly 79,000, 15% have a hit.

# molecule, growth inhibition (%)
records = [
    ("COc1ccc(C(C)c2cc3c(cc2OCC(C)=O)OCO3)cc1 (centres undefined)", 6),
    ("C[N+](C)([O-])CCCNc1c2ccccc2nc2cccc([N+](=O)[O-])c12", 96),
    ("CCCCCCCCCC(=O)N(CCC)CCC", 15),
    ("CSc1nc(-c2ccccc2)nc(=[N+]2CCOCC2)s1", 86),
    ("CCCCN(CCC#N)c1ccc(/C=C/c2ccnc3ccccc23)cc1", 1),
    ("Cc1cc(C)c2[s+]snc2c1", 6),
    ("O=[N+]([O-])c1ccc2nc(=S)[nH]n2c1", 2),
    ("Cc1ccc(Nc2n[nH]c(=S)s2)c(C)c1", -13),
    ("O=[N+]([O-])c1cc[n+]([O-])c(Cl)c1", -5),
    ("C=COC(=O)N[C@H]1CCc2cc(OC)c(OC)c(OC)c2-c2ccc(SC)c(=O)cc21", 3),
    ("O=C1SS(=O)c2ccccc21 (centres undefined)", 15),
    ("O=C(NC(N1CCN(c2cc3c(cc2F)c(=O)c(C(=O)O)cn3C2CC2)CC1)(C(F)(F)F)C(F)(F)F)c1ccccc1", -1),
    ("Cc1cccc2c(NCCCN(C)C)c3c([N+](=O)[O-])ccc(C)c3nc12", 96),
    ("Cc1ccc(NC(=O)CCC(=O)C(C)C(=O)c2ccccc2)c(C)c1 (centres undefined)", -1),
    ("CCOP(=O)(OCC)/C(C#N)=C/c1cccc(Oc2ccccc2)c1", 53),
    ("OC(c1ccccc1)(c1ccccc1)c1nccc2ccccc12", 27),
    ("O=C(O)/C=C\\C(=O)Nc1ccc2c(c1)Cc1cc(Cl)ccc1-2", 18),
    ("CCCCN(CCCC)c1ccc(N=Nc2ccc(S(=O)(=O)O)cc2)cc1", 8),
    ("COc1ccc(N=c2cc(-c3ccccc3)oc3ccccc23)cc1", -1),
    ("Cc1nc2sc3c(c2c(=O)o1)CCCC3", -4),
    ("Cc1cccc2c(Cl)c3cccc(C)c3nc12", -1),
    ("COc1cc([N+](=O)[O-])c2ncccc2c1Br", 93),
    ("O=C1c2cccc3cccc(c23)C(=O)N1O", 13),
    ("CN(C)CCNC(=Cc1ccc2ccccc2[n+]1C)NCCN(C)C", 0),
    ("O=C1Nc2ccc(Br)cc2C1=Nc1cccnc1", -32),
    ("S=C(NCc1ccccn1)N/N=C/c1ccccn1", 98),
    ("Cc1ccccc1NC(=O)c1c(C)oc2c1C(=O)c1ccccc1C2=O", -17),
    ("Cc1c(Cl)c(C)c(Cl)c(O)c1Cl", -25),
    ("c1c[nH]c(CN2CCN(Cc3ncc[nH]3)CC2)n1", 96),
    ("C=C(C(=O)OC)N1C(=O)CC(C)C1=O (centres undefined)", 17),
    ("COC(=O)C1CCCCC1C(=O)Nc1ccccc1 (centres undefined)", -2),
    ("Nc1ccc(/C=C/c2ccc3cccnc3c2)cc1", 11),
    ("NC(N)=NC(N)=Nc1ccccc1 (tested in a mixture with another compound)", 3),
    ("COc1ccccc1NC(=O)c1ccc(Cl)cc1", 1),
]

###

# assay info: NCI Yeast Anticancer Drug Screen. Data for the cln2 rad14 strain (AID 165);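 note: 0% = growth equal to vehicle treated cultures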
# experimental parameters: S. cerevisiae cln2 rad14 strain, at 5.0 µM (retest, dose inferred, filed as 0.5)
Compounds without any hit were thinned out: in the full panel of roughly 79,000, 15% have a hit. Activity calls are given as the source filed them. Cut-off read from the data, not from the text of the source: active = growth inhibition above about 70%; inactive = the rest.
Outcome codes: Yes = active, No = inactive

# compound, class name
rows = [
    ("NCCCSc1ccccc1", "No"),
    ("CC(CN(C)C)C(=O)/C=C/c1ccc(Cl)c(Cl)c1 (configuration not stated)", "No"),
    ("O/N=c1/ccn(O)c2ccccc12", "Yes"),
    ("COc1ccc2cc3c4cc5c(cc4cc[n+]3cc2c1OC)OCO5", "No"),
    ("O=C1C(=O)c2cccc([N+](=O)[O-])c2-c2ccccc21", "No"),
    ("CN(N=O)C(=O)Nc1ccc(C(=O)O)cc1", "No"),
    ("O=C(O)c1ccc2cc(Cl)c3ccccc3c2c1", "No"),
    ("NC(N)=NS(=O)(=O)c1ccc(Nc2c3ccccc3nc3c(C(=O)NC(CO)(CO)CO)cccc23)cc1", "No"),
    ("O=C(O)CNC(c1ccccc1)(c1ccccc1)c1ccccc1", "No"),
    ("N#C/C(=C\\NC(=S)Nc1ccc(S(N)(=O)=O)cc1)C(=O)c1ccc2ccccc2c1", "Yes"),
    ("CN(C)CCNC(=Cc1ccc2ccccc2[n+]1C)NCCN(C)C", "No"),
    ("[N-]=[N+]=NC1(c2ccccc2)C(=O)Nc2ccccc2C1=O (configuration not stated)", "No"),
    ("O=C(Cc1ccccc1)NNc1nc(NNC(=O)c2ccncc2)nc(Nc2ccc([N+](=O)[O-])cc2)n1", "No"),
    ("CCC(=O)Nc1ccc(N=NN(C)C)cc1", "No"),
    ("CCC(=O)C1=C(O)c2cc(OC)ccc2CC1C(=O)OC (configuration not stated)", "No"),
    ("NNc1ccccc1-c1nc2ccccc2[nH]1", "No"),
    ("O=C(NO)c1coc2ccccc2c1=O", "No"),
    ("COc1ccc(C(C)c2cc3c(cc2OC(C)O)OCO3)cc1 (configuration not stated)", "No"),
    ("Fc1ccc(Nc2ccc3ccccc3c2)cc1", "No"),
    ("N#CC1OB(O)c2ccccc21 (configuration not stated)", "No"),
    ("O=C1c2cccc3cccc(c23)C(=O)N1CCNCCN1C(=O)c2cccc3cccc(c23)C1=O", "No"),
    ("C/C1=C/C2OC(=O)C3(C)C2C(CC2(C)OC1=CC2=O)OC3(O)C(C)C (configuration not stated)", "No"),
]
